Where these numbers come from: patent US9949965B2

Molecular target: recombinant Mcl-1 (residues 172-327) (Homo sapiens)
Construct: 14 nM recombinant Mcl-1 (residues 172-327) were added to assay buffer
Sequence (Q07820 172-327): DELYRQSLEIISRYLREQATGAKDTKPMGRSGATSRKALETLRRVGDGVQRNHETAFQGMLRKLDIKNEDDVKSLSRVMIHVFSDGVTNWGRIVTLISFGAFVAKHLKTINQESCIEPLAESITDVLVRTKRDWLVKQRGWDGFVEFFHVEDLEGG
Test: Bak peptide binding assay: fluorescence polarization anisotropy competition (FITC-Bak BH3 peptide)
Conditions: Ki For Inhibition of Mcl-I Protein, Table 2, binned range; 10 nM FITC-Bak, 14 nM Mcl-1; Ki converted from IC50
Protocol: Bak Peptide Binding Assay Compound affinity was measured using a fluorescence polarization anisotropy competition assay. Anisotropy measurements were carried out in 384-well, black, flat-bottom plates (Greiner Bio-one, Monroe, N.C., USA). […] Compounds are diluted in DMSO in a 10-point, 3-fold serial dilution scheme. […] Anisotropy is measured at excitation wavelength 480 nm and emission wavelength 535 nm using an EnVision Multi-label plate reader (PerkinElmer, Wellesley, Mass., USA). […]
Endpoint name: Ki

Below, 3 molecules whose answers are already recorded.
smiles_string=O=C(O)c1c(CCCOc2ccc3c(c2)CCCC3)c2cccc3c2n1CCS3 result="301 to 500 nM"
smiles_string=Cc1cc(OCCCc2c(C(=O)NS(=O)(=O)c3ccccc3)n3c4c(cccc24)CCC3)cc(C)c1Cl result="301 to 500 nM"
smiles_string=O=C(O)c1c(CCCOc2cccc3ccccc23)c2cccc3c2n1CCC3 result="301 to 500 nM"

Query :: Param readout= Ki; system= recombinant Mcl-1 (residues 172-327) (Homo sapiens); entry= O=C(O)c1c(CCCOc2ccc(Cl)c3ccccc23)c2cccc3c2n1CCS3 ; returns value.
Result :: 101 to 299 nM
